All values here come from patent US11649255B2.

molecular target: recombinant human HPK1 (Homo sapiens (Human), UniProt Q92918); assay: HPK1 kinase assay (ADP-Glo); conditions: 25 μM ATP, MBP substrate
Sequence (Q92918 whole entry): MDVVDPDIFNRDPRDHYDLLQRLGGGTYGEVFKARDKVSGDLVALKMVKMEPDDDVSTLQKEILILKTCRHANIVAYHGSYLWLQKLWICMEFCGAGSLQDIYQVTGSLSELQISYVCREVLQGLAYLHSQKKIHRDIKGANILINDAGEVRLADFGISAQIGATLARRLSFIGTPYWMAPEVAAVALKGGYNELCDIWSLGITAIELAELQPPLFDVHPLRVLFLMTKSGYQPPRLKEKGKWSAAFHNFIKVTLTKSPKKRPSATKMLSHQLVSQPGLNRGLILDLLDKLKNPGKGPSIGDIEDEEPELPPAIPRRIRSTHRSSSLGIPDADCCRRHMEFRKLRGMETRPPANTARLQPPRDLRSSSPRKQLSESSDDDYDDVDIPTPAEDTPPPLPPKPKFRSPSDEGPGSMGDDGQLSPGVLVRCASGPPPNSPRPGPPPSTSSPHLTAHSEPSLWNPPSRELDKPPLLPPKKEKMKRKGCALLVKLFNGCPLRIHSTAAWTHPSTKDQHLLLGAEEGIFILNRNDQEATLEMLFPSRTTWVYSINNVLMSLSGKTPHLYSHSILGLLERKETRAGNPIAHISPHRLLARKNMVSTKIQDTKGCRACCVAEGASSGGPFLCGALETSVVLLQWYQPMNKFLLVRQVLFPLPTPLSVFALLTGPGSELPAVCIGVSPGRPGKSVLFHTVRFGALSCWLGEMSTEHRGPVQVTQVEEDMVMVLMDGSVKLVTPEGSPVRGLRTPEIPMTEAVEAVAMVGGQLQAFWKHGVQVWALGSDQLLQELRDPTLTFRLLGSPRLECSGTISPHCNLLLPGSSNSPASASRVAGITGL
Assign IC50 to each entry below.

Query :: Using known records, supply IC50 for COCC1CN(c2c(F)c(Cl)c(-c3ccn4nc(NC(=O)[C@@H]5C[C@@H]5F)cc4c3)c3cn[nH]c23)C1
Result :: < 100 nM

Query :: Using known records, supply IC50 for CN(C)C(=O)c1c(F)cc(-c2ccn3nc(NC(=O)[C@@H]4C[C@@H]4F)cc3c2)c2cn[nH]c12
Result :: 101 to 500 nM

Query :: Using known records, supply IC50 for CC(=O)NCCSc1c(F)c(Cl)c(-c2ccc3nc(NC(=O)[C@@H]4C[C@@H]4F)sc3c2)c2cn[nH]c12
Result :: < 100 nM

Query :: Using known records, supply IC50 for CSc1c(F)c(SC)c2[nH]ncc2c1-c1ccc2nc(NC(=O)[C@@H]3C[C@@H]3F)cn2c1
Result :: < 100 nM

Query :: Using known records, supply IC50 for Cc1c(F)c(N(C)C)c2[nH]ncc2c1-c1ccc2nc(NC(=O)[C@@H]3C[C@@H]3F)cn2c1
Result :: < 100 nM

Query :: Using known records, supply IC50 for CCc1ccc2[nH]ncc2c1-c1ccc2nc(NC(=O)C3CC3)cn2c1
Result :: > 1000 nM

Query :: Using known records, supply IC50 for CC(C)(C#N)Nc1c(F)c(Cl)c(-c2ccn3nc(NC(=O)[C@@H]4C[C@@H]4F)cc3c2)c2cn[nH]c12
Result :: < 100 nM

Query :: Using known records, supply IC50 for CCc1c(F)c(F)c2[nH]ncc2c1-c1ccc2nc(NC(=O)[C@@H]3C[C@@H]3F)sc2n1
Result :: < 100 nM

Query :: Using known records, supply IC50 for CC(C)(C)OC(=O)c1ccc2[nH]ncc2c1-c1ccc2nc(NC(=O)C3CC3)sc2c1
Result :: > 1000 nM

Query :: Using known records, supply IC50 for CP(C)(=O)c1c(F)c(Cl)c(-c2ccc3nc(NC(=O)[C@@H]4C[C@@H]4F)sc3c2)c2cn[nH]c12
Result :: > 1000 nM

Query :: Using known records, supply IC50 for CC(C)(O)c1c(F)c(Cl)c(-c2ccc3nc(NC(=O)[C@@H]4C[C@@H]4F)cn3c2)c2cn[nH]c12
Result :: < 100 nM

Query :: Using known records, supply IC50 for CN(C)c1ccc(-c2ccc3nc(NC(=O)[C@@H]4C[C@@H]4F)sc3n2)c2cn[nH]c12
Result :: > 1000 nM

Query :: Using known records, supply IC50 for C[C@H](c1c(F)c(Cl)c(-c2ccc3nc(NC(=O)[C@@H]4C[C@@H]4F)cn3c2)c2cn[nH]c12)n1ncnn1
Result :: < 100 nM

Query :: Using known records, supply IC50 for CC(=O)Nc1c(F)c(Cl)c(-c2ccn3nc(NC(=O)[C@@H]4C[C@@H]4F)cc3c2)c2cn[nH]c12
Result :: < 100 nM

Query :: Using known records, supply IC50 for O=C(Nc1cc2cc(-c3c(Cl)c(F)c(C4CCCC4)c4[nH]ncc34)ccn2n1)[C@@H]1C[C@@H]1F
Result :: < 100 nM

====

Assign IC50 to each entry below.
target: recombinant human HPK1 (Homo sapiens (Human)); assay: HPK1 kinase assay (ADP-Glo); details: 25 μM ATP, MBP substrate

Query :: Using known records, supply IC50 for CCc1c(F)c(N(C)C)c2[nH]ncc2c1-c1ccn2nc(NC(=O)[C@@H]3C[C@@H]3F)cc2c1
Result :: < 100 nM

Query :: Using known records, supply IC50 for CCOCc1c(F)c(Cl)c(-c2ccc3nc(NC(=O)[C@@H]4C[C@@H]4F)cn3c2)c2cn[nH]c12
Result :: < 100 nM

Query :: Using known records, supply IC50 for CNC(=O)OCCN(C)c1c(F)c(C)c(-c2ccn3nc(NC(=O)[C@@H]4C[C@@H]4F)cc3c2)c2cn[nH]c12
Result :: < 100 nM

Query :: Using known records, supply IC50 for CC(=O)N(C)c1c(F)c(Cl)c(-c2ccc3nc(NC(=O)[C@@H]4C[C@@H]4F)cn3c2)c2cn[nH]c12
Result :: < 100 nM

Query :: Using known records, supply IC50 for COC(=O)c1c(F)c(Cl)c(-c2ccc3nc(NC(=O)[C@@H]4C[C@@H]4F)cn3c2)c2cn[nH]c12
Result :: < 100 nM

Query :: Using known records, supply IC50 for CC(c1c(F)c(Cl)c(-c2ccc3nc(NC(=O)[C@@H]4C[C@@H]4F)cn3c2)c2cn[nH]c12)S(C)(=O)=O (some centres unmarked)
Result :: < 100 nM

Query :: Using known records, supply IC50 for Cc1c(F)c(F)c2[nH]ncc2c1-c1ccc2nc(NC(=O)[C@@H]3C[C@@H]3F)cn2c1
Result :: < 100 nM

Query :: Using known records, supply IC50 for CCc1c(F)c(SC)c2[nH]ncc2c1-c1ccc2nc(NC(=O)[C@@H]3C[C@@H]3F)sc2c1
Result :: < 100 nM

Query :: Using known records, supply IC50 for CN(c1ncc(F)cn1)c1c(F)c(Cl)c(-c2ccn3nc(NC(=O)[C@@H]4C[C@@H]4F)cc3c2)c2cn[nH]c12
Result :: < 100 nM

Query :: Using known records, supply IC50 for Cc1c(F)c(Cl)c2[nH]ncc2c1-c1ccc2nc(NC(=O)[C@@H]3C[C@@H]3F)cn2c1
Result :: < 100 nM

Query :: Using known records, supply IC50 for O=C(Nc1nc2ccc(-c3c(Cl)c(F)c(F)c4[nH]ncc34)nc2s1)[C@@H]1C[C@@H]1F [Example 208, 2,2,2-trifluoroacetate]
Result :: < 100 nM

Query :: Using known records, supply IC50 for O=C(Nc1cn2cc(-c3c(Cl)c(F)c(CF)c4[nH]ncc34)ccc2n1)[C@@H]1C[C@@H]1F
Result :: < 100 nM

Query :: Using known records, supply IC50 for N#CCNc1c(F)c(Cl)c(-c2ccn3nc(NC(=O)[C@@H]4C[C@@H]4F)cc3c2)c2cn[nH]c12
Result :: < 100 nM

Query :: Using known records, supply IC50 for CC(C)Nc1c(F)c(Cl)c(-c2ccn3nc(NC(=O)[C@@H]4C[C@@H]4F)cc3c2)c2cn[nH]c12
Result :: < 100 nM

====

target: recombinant human HPK1 (Homo sapiens (Human), UniProt Q92918); assay: HPK1 kinase assay (ADP-Glo); type: biochemical; details: 25 μM ATP, MBP substrate
pIC50: −log10 of the molar value.
Assign pIC50 to each entry below.

Query :: Using known records, supply pIC50 for CCOc1c(F)c(Cl)c(-c2ccn3nc(NC(=O)[C@@H]4C[C@@H]4F)cc3c2)c2cn[nH]c12 [Example 493]
Result :: > 7.00

Query :: Using known records, supply pIC50 for CN(C)C(=O)c1c(F)cc(-c2ccc3nc(NC(=O)[C@@H]4C[C@@H]4F)sc3c2)c2cn[nH]c12 [Example 144]
Result :: 6.30 to 7.00

Query :: Using known records, supply pIC50 for CS(=O)(=O)c1c(F)c(Cl)c(-c2ccn3nc(NC(=O)[C@@H]4C[C@@H]4F)cc3c2)c2cn[nH]c12 [Example 486]
Result :: > 7.00

Query :: Using known records, supply pIC50 for Cc1c(F)cc2[nH]nc(Cl)c2c1-c1ccc2nc(NC(=O)[C@@H]3C[C@@H]3F)sc2c1 [Example 44]
Result :: 6.00 to 6.30

Query :: Using known records, supply pIC50 for Nc1c(F)c(Cl)c(-c2ccc3nc(NC(=O)[C@@H]4C[C@@H]4F)sc3c2)c2cn[nH]c12 [Example 68]
Result :: > 7.00

Query :: Using known records, supply pIC50 for CSc1c(F)c(F)c2[nH]ncc2c1-c1ccn2nc(NC(=O)[C@H]3C[C@@H]3F)cc2c1 [Example 600]
Result :: > 7.00

Query :: Using known records, supply pIC50 for O=C(Nc1cc2cc(-c3c(Cl)c(F)cc4[nH]ncc34)ccn2n1)[C@@H]1C[C@@H]1F [Example 458]
Result :: > 7.00

====

molecular target: recombinant human HPK1 (Homo sapiens (Human), UniProt Q92918); experiment: HPK1 kinase assay (ADP-Glo); conditions: 25 μM ATP, MBP substrate
quantity-kind: IC50

Query :: Using known records, supply IC50 for Cc1c(F)c(C)c2[nH]ncc2c1-c1ccn2nc(NC(=O)[C@@H]3C[C@@H]3F)cc2c1 [Example 477]
Result :: < 100 nM

Query :: Using known records, supply IC50 for Cc1ccc2[nH]ncc2c1-c1ccc2nc(NC(=S)C3CC3)sc2c1 [Example 32]
Result :: 101 to 500 nM

Query :: Using known records, supply IC50 for CC(c1c(F)c(Cl)c(-c2ccc3nc(NC(=O)[C@@H]4C[C@@H]4F)cn3c2)c2cn[nH]c12)N(C)C (stereo partly shown) [Example 396]
Result :: < 100 nM

Query :: Using known records, supply IC50 for CCCCC(=O)Nc1nc2ccc(-c3c(C)ccc4[nH]ncc34)cc2s1 [Example 9]
Result :: > 1000 nM
